test: NCI Yeast Anticancer Drug Screen. Data for the bub3 strain (AID 167); conditions: S. cerevisiae bub3 mutant strain, at 50.0 µM (retest, dose inferred, filed as 5.0), stronger effect = higher value
This is part of a sample that, as a whole, favours compounds with a hit. Of some 79,000 tested, about 15% had one in any assay.
Range-based classes on measured growth inhibition: zone 1: < 70%; zone 2: ≥ 70% and < 80%; zone 3: ≥ 80%

Reference set (5 entries):
compound: COc1cccc2c1C(=O)c1c(O)c3c(c(O)c1C2=O)C[C@@](O)(C(C)=O)C[C@@H]3OC1CC(OC(C)=O)C(OC(C)=O)C(C)O1 (stereo not given in full)
label value: zone 3
--
compound: CCOC(=N)c1ccc(O)c(OC)c1
label value: zone 3
--
compound: CCCCc1ccc(-n2c(C)c(COC(=O)NC)c(COC(=O)NC)c2C)cc1
label value: zone 1
--
compound: C/C(=N\Nc1ccc([N+](=O)[O-])cc1[N+](=O)[O-])c1sc(-n2nc(-c3ccccc3)cc2-c2ccccc2)nc1C
label value: zone 2
--
compound: CCn1c(O)c(C=Nc2ccccc2)s/c1=N/Nc1nc(-c2ccccc2)cs1
label value: zone 2

Band for the recorded growth inhibition of `CC1=NOC(=O)/C1=C/c1ccc2c(c1)OCO2` ?
zone 1

Band for the recorded growth inhibition of `Clc1ccc2c(c1)N(CCCN1CCCC13CCCCC3)c1ccccc1S2` ?
zone 1

Band for the recorded growth inhibition of OC(/C=C/c1ccccc1)(Cc1cc(-c2ccccc2)n[nH]1)c1ccccc1 (stereo not given) ?
zone 3

* * *

The entries below are paired with their reported growth inhibition.
assay: NCI Yeast Anticancer Drug Screen. Data for the wt1 strain (AID 149);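 note: 0% = growth of vehicle-treated wt1 cultures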; conditions: S. cerevisiae wt1 strain (SPY 50644) growth inhibition; at 11.0 µM; stronger effect = higher value
About 79,000 compounds went through this panel and 15% of them were active in at least one assay; those are over-represented in the sample as a whole.
Field: numeric (%). Do not append units.

Consider the following illustrative entries.
compound: C[Si](C)(C)/C=C/CCNC(C#N)c1ccccc1 (centres undefined)
measurement units: %
growth inhibition: 41
--
compound: CN(C)CCNC(=O)c1cccc2c1Oc1c(cccc1[N+](=O)[O-])O2
measurement units: %
growth inhibition: -14
--
compound: O=C1Nc2ccccc2/C1=C/c1ccccc1
measurement units: %
growth inhibition: 0
--
compound: COc1cc([C@@H]2c3cc4c(cc3[C@H](OC3OC5COC(C(C)C)OC5C(O)C3O)C3COC(=O)[C@@H]32)OCO4)cc(OC)c1O (some centres undefined)
measurement units: %
growth inhibition: 12
--
compound: O=C(Nc1ccc(Cl)cc1)Nc1nnc2nc(C(C(=O)c3cccc([N+](=O)[O-])c3Cl)c3nc4nnc(NC(=O)Nc5ccc(Cl)cc5)n4[nH]c3=O)c(=O)[nH]n12
measurement units: %
growth inhibition: 3
--
compound: COc1cccc(/C=N/C(/N=C/c2cccc(OC)c2O)c2cccc(OC)c2O)c1O
measurement units: %
growth inhibition: 7
--
compound: Cc1cccc2c1nc1ccc(Cl)cc1[n+]2C
measurement units: %
growth inhibition: 41
--
compound: O=C1/C(=C/c2ccccc2)CCCC1CN1CCCCC1 (centres undefined)
measurement units: %
growth inhibition: 28

Here's the next entry for you.
// field: growth inhibition; key: C=C1C(=O)OC2CC1C(OC(C)=O)C/C(C)=C/CC/C(C)=C\CCC2(C)O (centres undefined) ; value = 13
